protocol_details: chemical genetic growth profiling, strain panel (AID 1159580);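 further: tested at 20 µM; growth read once vehicle control cultures reached saturation at 30 °C; 1 = growth at the plate median or of vehicle wells; lower values mean less growth of the strain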
details: S. cerevisiae deletion strains, growth OD, locus YKL160W, strain elf1, stronger effect = lower value
Screen size: about 5,500 compounds; about 2,000 (36%) were called active. Inconclusive results (about 18%) are left out. The list shows a part of the results.
measured_attribute: normalized growth

{"compound": "CCN(CC)C(=O)c1cccc(C)c1", "numeric_result": 1.02}
{"compound": "CCC(C)(C)C(=O)O[C@H]1C[C@@H](C)C=C2C=C[C@H](C)[C@H](CC[C@@H]3C[C@@H](O)CC(=O)O3)[C@H]21", "numeric_result": 0.949}
{"compound": "COc1c2ccoc2c(OC)c2oc(=O)ccc12", "numeric_result": 0.933}
{"compound": "CC[C@H](C)C(=O)O[C@H]1CCC=C2C=C[C@H](C)C(CCC3C[C@@H](O)CC(=O)O3)[C@H]21 (stereo not given in full)", "numeric_result": 1.01}
{"compound": "O=c1cc(-c2ccccc2O)oc2cc(O)ccc12", "numeric_result": 1.03}
